Kindly state FGFR1/FGFR4 for each of the entries shown.
- TGT: FGFR4 (Homo sapiens (Human))
- Sequence (P22455 22-802): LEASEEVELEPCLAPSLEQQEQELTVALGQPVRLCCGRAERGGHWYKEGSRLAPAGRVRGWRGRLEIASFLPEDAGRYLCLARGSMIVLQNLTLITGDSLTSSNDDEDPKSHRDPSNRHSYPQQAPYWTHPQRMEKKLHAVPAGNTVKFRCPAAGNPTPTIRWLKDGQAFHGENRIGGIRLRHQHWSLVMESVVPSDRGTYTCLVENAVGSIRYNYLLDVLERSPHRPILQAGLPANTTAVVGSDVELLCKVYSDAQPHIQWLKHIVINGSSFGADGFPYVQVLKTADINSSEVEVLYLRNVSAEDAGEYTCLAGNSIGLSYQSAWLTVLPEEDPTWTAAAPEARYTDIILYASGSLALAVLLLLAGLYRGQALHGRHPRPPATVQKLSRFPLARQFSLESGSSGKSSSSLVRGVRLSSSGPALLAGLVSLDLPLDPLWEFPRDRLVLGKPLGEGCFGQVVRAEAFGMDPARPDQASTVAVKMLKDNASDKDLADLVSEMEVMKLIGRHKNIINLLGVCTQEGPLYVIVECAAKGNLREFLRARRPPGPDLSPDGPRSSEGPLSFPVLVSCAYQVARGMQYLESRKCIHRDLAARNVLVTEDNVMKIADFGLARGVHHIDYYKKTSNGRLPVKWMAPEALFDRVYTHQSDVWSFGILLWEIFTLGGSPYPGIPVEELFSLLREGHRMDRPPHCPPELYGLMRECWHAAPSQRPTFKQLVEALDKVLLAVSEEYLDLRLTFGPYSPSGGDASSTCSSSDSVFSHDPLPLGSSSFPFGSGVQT
- ASSAY SUMMARY: FGFR Enzymatic Assay (FRET peptide phosphorylation), FGFR4
- Assay type: biochemical
- CONDITION DESCRIPTION: IC50 ratio showing FGFR4 selectivity; Table 2, pre-incubated for 4 hours

Task: Read the entry COc1cc(OC)c(F)c(N2Cc3cnc(-c4cccnc4)cc3C3(CC3)C2=O)c1F and write its reported FGFR1/FGFR4.
Output: >10

Task: Read the entry COc1cc(OC)c(F)c(N2Cc3cnc(-c4[nH]ncc4C#N)cc3C3(CC3)C2=O)c1F and write its reported FGFR1/FGFR4.
Output: >10

Task: Read the entry COc1cc(OC)c(F)c(N2Cc3cnc(-c4cncc(N5CCOCC5)c4)cc3C3(CC3)C2=O)c1F and write its reported FGFR1/FGFR4.
Output: >100

Task: Read the entry COc1cc(OC)c(F)c(N2Cc3cnc(-c4cncc(Cl)c4)cc3C3(CC3)C2=O)c1F and write its reported FGFR1/FGFR4.
Output: >25

Task: Read the entry COc1cc(OC)c(F)c(N2Cc3cnc(-c4cc(N)c(F)cc4C)cc3C3(CC3)C2=O)c1F and write its reported FGFR1/FGFR4.
Output: >10

The measured values listed here are drawn from patent US11173162B2.
